- tgt: EGFR L858R/C797S dual mutations (Homo sapiens, UniProt P00533, C797S/L858R)
- Sequence (P00533 25-1210 C797S/L858R): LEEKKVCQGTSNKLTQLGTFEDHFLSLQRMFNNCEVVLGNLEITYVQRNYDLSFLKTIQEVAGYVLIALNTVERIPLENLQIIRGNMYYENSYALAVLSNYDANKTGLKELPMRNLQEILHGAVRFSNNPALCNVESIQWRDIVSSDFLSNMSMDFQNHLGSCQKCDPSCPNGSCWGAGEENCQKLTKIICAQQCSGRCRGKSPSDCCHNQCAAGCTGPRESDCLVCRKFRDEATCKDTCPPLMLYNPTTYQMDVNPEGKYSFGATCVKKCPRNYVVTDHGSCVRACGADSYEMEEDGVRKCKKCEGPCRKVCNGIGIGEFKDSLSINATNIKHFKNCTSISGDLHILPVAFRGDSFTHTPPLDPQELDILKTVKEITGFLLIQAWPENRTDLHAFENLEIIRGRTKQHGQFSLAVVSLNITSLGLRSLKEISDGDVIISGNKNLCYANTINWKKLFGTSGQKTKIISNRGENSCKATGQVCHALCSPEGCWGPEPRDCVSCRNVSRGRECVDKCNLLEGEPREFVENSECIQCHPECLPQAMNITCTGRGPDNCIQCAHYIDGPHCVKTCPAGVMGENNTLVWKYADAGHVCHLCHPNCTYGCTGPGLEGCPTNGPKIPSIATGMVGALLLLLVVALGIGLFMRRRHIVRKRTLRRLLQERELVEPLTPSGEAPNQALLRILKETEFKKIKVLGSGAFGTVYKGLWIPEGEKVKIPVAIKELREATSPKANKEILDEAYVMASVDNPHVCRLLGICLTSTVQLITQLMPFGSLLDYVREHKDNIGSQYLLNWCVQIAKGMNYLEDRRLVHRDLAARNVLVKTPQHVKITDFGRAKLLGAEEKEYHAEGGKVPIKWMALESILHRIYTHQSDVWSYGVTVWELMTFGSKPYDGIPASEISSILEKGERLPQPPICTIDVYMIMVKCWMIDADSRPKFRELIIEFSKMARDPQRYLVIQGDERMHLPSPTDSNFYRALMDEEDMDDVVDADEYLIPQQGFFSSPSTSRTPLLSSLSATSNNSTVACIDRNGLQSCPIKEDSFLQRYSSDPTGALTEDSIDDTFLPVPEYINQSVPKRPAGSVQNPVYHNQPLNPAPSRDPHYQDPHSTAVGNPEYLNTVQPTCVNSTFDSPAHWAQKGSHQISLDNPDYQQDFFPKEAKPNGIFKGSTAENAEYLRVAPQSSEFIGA
- protocol.details: Kinase inhibition assay (HTRF)

| smiles.data | unit.spec | IC50 |
| --- | --- | --- |
| C#Cc1cccc(Nc2ncnc3cc(OC)c(O[C@@H]4CCN(C)CC4(F)F)cc23)c1F | nM | 0.037 |

----------
- tgt: EGFR L792H (Homo sapiens, UniProt P00533, L792H)
- Sequence (P00533 25-1210 L792H): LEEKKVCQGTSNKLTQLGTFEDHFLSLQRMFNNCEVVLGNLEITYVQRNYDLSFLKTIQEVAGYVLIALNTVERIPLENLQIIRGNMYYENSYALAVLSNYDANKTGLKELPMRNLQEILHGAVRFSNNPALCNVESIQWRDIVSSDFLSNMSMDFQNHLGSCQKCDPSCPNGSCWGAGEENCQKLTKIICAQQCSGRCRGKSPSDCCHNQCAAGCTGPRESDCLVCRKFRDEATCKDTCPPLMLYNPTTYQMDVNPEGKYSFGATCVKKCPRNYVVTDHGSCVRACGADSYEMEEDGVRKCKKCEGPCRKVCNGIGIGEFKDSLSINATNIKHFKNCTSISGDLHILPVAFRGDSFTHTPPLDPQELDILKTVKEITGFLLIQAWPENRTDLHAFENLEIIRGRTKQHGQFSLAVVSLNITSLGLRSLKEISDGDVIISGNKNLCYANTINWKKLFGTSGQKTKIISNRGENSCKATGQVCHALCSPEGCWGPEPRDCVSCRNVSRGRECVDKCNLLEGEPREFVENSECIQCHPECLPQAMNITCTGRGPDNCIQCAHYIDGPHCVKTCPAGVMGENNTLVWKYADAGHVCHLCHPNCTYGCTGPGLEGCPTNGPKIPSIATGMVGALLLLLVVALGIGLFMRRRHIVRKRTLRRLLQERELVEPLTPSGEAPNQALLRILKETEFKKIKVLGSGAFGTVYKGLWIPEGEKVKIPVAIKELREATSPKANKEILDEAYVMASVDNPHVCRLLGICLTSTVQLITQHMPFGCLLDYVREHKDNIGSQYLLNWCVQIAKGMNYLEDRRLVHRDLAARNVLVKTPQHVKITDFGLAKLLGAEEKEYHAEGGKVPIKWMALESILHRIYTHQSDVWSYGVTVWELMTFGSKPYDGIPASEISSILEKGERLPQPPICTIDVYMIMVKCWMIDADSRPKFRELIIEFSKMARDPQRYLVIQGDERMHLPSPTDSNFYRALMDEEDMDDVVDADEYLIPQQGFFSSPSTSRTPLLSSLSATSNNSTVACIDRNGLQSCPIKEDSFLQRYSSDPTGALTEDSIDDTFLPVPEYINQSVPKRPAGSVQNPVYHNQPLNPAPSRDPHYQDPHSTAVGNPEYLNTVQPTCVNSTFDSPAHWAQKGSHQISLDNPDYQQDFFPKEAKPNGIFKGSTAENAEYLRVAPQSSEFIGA
- protocol.details: Kinase inhibition assay (HTRF)
pIC50: −log10 of the molar value.

| smiles.data | pIC50 |
| --- | --- |
| C#Cc1cccc(Nc2ncnc3cc(OC)c(O[C@@H]4CCN(C)CC4(F)F)cc23)c1F | 8.47 |

----------
- Test system: Ba/F3 Del19/C797S cells
- protocol.details: Antiproliferative activity assay (CellTiter-Glo, 72 h)
- Format: cell-based
- assay.context: Mus musculus, BaF3; Ba/F3 Del19/C797S, 72 hours, CellTiter-Glo; read-out: IC50
measured.property: IC50 (nM)

| smiles.data | tgt | measured.property | unit.spec | numeric.result |
| --- | --- | --- | --- | --- |
| C#Cc1cccc(Nc2ncnc3cc(OC)c(O[C@@H]4CCN(C)CC4(F)F)cc23)c1F | Ba/F3 Del19/C797S cells | IC50 | nM | 0.27 |
